Provide the recorded normalized growth for the entries that follow.
Experimental Protocol: chemical genetic growth profiling, strain panel (AID 1159580);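 further: tested at 20 µM; growth read once vehicle control cultures reached saturation at 30 °C; 1 = growth at the plate median or of vehicle wells; lower values mean less growth of the strain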
Condition Notes: S. cerevisiae deletion strains, growth OD, locus YBR229C, strain ROT2, stronger effect = lower value
Among all 5,500 compounds or so, about 2,000 (36%) were called active. Not shown: some 18% with an inconclusive outcome. Some of the results follow.
Give bare numbers.

Known results for compounds:
For reference, reported normalized growth for OC(CCN1CCCCC1)(c1ccccc1)c1ccccc1 stands at 1

COc1ccc2c(c1)[C@@]1(C)CCC(=O)C[C@H]1CC2 yielded normalized growth of 0.994

Lab book: normalized growth of Cc1ccc2cc(C)c(C)cc2c1 noted as 0.991

Reported normalized growth ( CC(=O)OCC(CCn1cnc2cnc(N)nc21)COC(C)=O ) = 0.989

Memo: Cc1ccc(Oc2ccc(C)cc2)cc1 , reported normalized growth: 0.999

Cc1cc(=O)c2c(O)cc(O)c(C)c2o1 yielded normalized growth of 0.987

Below is a list of compounds. For each, state its recorded normalized growth.
1. CCCCOc1ccc(C(=O)CCN2CCCCC2)cc1
2. COC(=O)c1c(Cl)c(Cl)c(C(=O)OC)c(Cl)c1Cl

## Result
[1, 1]

Hi! Can you tell me normalized growth for each of these compounds?
1. COC(=O)c1c(C)[nH]c(C)c1C(C)=O
2. COc1c(O)cc2oc3cc(O)c(CC=C(C)C)c(O)c3c(=O)c2c1CC=C(C)C
3. COc1cc(O)c2c(=O)cc(C)oc2c1CC=C(C)C

## Result
1.01
0.913
0.93

Batch request: normalized growth per item, same order as input.
1. COc1cccc2c1CCC1CC(=O)CCC21C (stereo not drawn)
2. Cc1ccc(C(=O)C(C)CN2CCCCC2)cc1 (stereo not drawn)

## Result
0.992
1.01
